FYI, the data here is from paper PMC12136788.

Would you mind telling me the reported binding signal of each entry?
# TARGET_OR_SYSTEM: T1, UNK ZnF1-3 (human, UniProt Q9C0B0 31-174)
# T1 sequence: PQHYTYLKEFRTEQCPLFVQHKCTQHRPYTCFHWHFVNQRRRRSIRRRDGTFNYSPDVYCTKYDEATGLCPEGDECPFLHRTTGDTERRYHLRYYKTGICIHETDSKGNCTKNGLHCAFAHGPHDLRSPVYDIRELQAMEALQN
# ASSAY_PROCEDURE: nsRBNS (natural sequence RNA bind-n-seq); RBNS binding buffer (assumed for nsRBNS): 25 mM Tris pH 7.5, 150 mM KCl, 3 mM MgCl2, 0.01% Triton X-100, 500 ug/ml BSA, 20 U/ml SUPERase-In, 4 C; UNK is unkempt and MSI1 is Musashi-1; names of the RNAs are library labels; protein concentration not given here; high values mean tight binding
In all, about 24,000 sequences were measured (“enrichment r”: median about 0.99, highest 2% from about 3.7 on). The entries come from a sample that favours the highest values as a whole.
Value expressed in enrichment R; do not type the unit.

Prompt line: binding signal lookup needed for chr16:49913422:49913423:+_ENSMUSG00000055447_ENSMUST00000084838|mus_mus|FALSE|FALSE (ssRNA) RNA: GGGAGUUCUACAGUCCGACGAUCGCUCUCUACGAUUGUAUAAGUGGAGGGCAGACAAUAAAUAAAAAUUGAAUAGAGGCUAUGACAGCAGAAAUCGGGAUUUGGGAGAGAAAAGCGCAUUGUGGGACAAAACAGAUGCGUGGUCAACAGAGGAUUGAGCAUCA , thanks.
Response line: 3.41

Prompt line: Thanks! And chr1:46159212:46159213:+_ENSG00000159596_ENST00000372025|hu_mus|hu_hu_hu_mus_True|68_98 (ssRNA) RNA: GGGAGUUCUACAGUCCGACGAUCUCUGAUCCCUCCCAAGAAAGAUAGGAAACCGGCUCCAUAAGCCAUCUGAGUAAAAGCUAGGACGGGGAUAUAAGACUUUGUUAUUACCAUGAGAAGUGGGGGAGCAGUAAAGGGGAUUAACAACAGAGGAUUGAGCAUCA ?
Response line: 1.71

Prompt line: Thanks! And chr8:73998637:73998638:+_ENSMUSG00000074247_ENSMUST00000124745|mus_hu|FALSE|FALSE (ssRNA) RNA: GGGAGUUCUACAGUCCGACGAUCCUUGAUACAGGUUACAGCAUAAAUAAAAACUCAAGGAAAAUAAAUACAUCGGCUCCUAUGAGGUUGGAAGUGGUGUGGACGCAGGGUGUGGAUGGGCCGGCAGGGAGGCGGGCGGGCGGGCAACAGAGGAUUGAGCAUCA ?
Response line: 3.01
